Tested on: HL60
ASSAY_PROCEDURE: XTT cytotoxicity assay, HL-60
Assay type: cell-based
EXPERIMENTAL_CONTEXT: Homo sapiens, HL-60; 72 h incubation; read-out: XTT, IC50 HL60
Give measured pIC50 for each item. Keep answers brief.
Quick note: pIC50 means taking -log10 of the concentration in moles per liter.

Record CSc1ncnc2c1c(-c1ccoc1)cn2[C@@H]1O[C@H](CO)[C@@H](O)[C@H]1O , field pIC50: 6.44

Short answer for COc1ncnc2c1c(I)cn2[C@@H]1O[C@H](CO)[C@@H](O)[C@H]1O [Compound 1h, reference compound] : pIC50 was 5.64

// pIC50 lookup, compound = Cc1ncnc2c1c(-c1ccsc1)cn2[C@@H]1O[C@H](CO)[C@@H](O)[C@H]1O , result: 6.46

Per the records, this compound ( CN(C)c1ncnc2c1ccn2[C@@H]1O[C@H](CO)[C@@H](O)[C@H]1O [RC4, reference compound] ) has pIC50 equal to 6.06

The reported value for CN(C)c1ncnc2c1c(-c1ccoc1)cn2[C@@H]1O[C@H](CO)[C@@H](O)[C@H]1O in terms of pIC50 is 5.94

Measured pIC50, Cc1ncnc2c1c(Br)cn2[C@@H]1O[C@H](CO)[C@@H](O)[C@H]1O : 5.14

* * *

READOUT_TYPE: melting point

Short answer for CSc1ncnc2c1c(-c1ccccc1)cn2[C@@H]1O[C@H](CO)[C@@H](O)[C@H]1O : melting point was 169 to 170 °C

melting point recorded for this molecule, Cc1ncnc2c1c(Br)cn2[C@@H]1O[C@H](CO)[C@@H](O)[C@H]1O , is 188 to 189 °C

// recorded melting point for CNc1ncnc2c1c(-c1ccccc1)cn2[C@@H]1O[C@H](CO)[C@@H](O)[C@H]1O : 149 to 153 °C

Looking up CSc1ncnc2c1c(-c1ccsc1)cn2[C@@H]1O[C@H](CO)[C@@H](O)[C@H]1O , I found its melting point recorded as 192 to 193 °C

Given item CSc1ncnc2c1c(-c1ccoc1)cn2[C@@H]1O[C@H](CO)[C@@H](O)[C@H]1O , the value recorded as its melting point is 121 to 124 °C

// melting point value for COc1ncnc2c1c(-c1ccoc1)cn2[C@@H]1O[C@H](CO)[C@@H](O)[C@H]1O : 190 to 192 °C

Entry CSc1ncnc2c1c(I)cn2[C@@H]1O[C@H](CO)[C@@H](O)[C@H]1O , melting point reported as 217 to 219 °C

Entry CNc1ncnc2c1c(-c1ccsc1)cn2[C@@H]1O[C@H](CO)[C@@H](O)[C@H]1O ; melting point = 135 to 138 °C

* * *

Test system: A549
ASSAY_PROCEDURE: Cytostatic/cytotoxic MTT assay, A549
Assay type: cell-based
EXPERIMENTAL_CONTEXT: Homo sapiens, A549, 72 h, read-out: MTT, IC50 A549
READOUT_TYPE: pIC50
Value format note: pIC50 is -log10 of concentration (mol/L); just state the number.

Recorded result, Cc1ncnc2c1ccn2[C@@H]1O[C@H](CO)[C@@H](O)[C@H]1O [RC5, reference compound] , pIC50: 7.52

* * *

Test system: K562
ASSAY_PROCEDURE: Cytostatic/cytotoxic MTT assay, K562
Assay type: cell-based
EXPERIMENTAL_CONTEXT: Homo sapiens, K562, 72 h, read-out: MTT, IC50 K562
READOUT_TYPE: pIC50
Conceptually, pIC50 converts a concentration in mol/L into minus its log10.

# compound Cc1ncnc2c1ccn2[C@@H]1O[C@H](CO)[C@@H](O)[C@H]1O [RC5, reference compound] ; its pIC50 = 8.00

These entries and their values trace back to patent US9586986B2.
